Numbers sourced from patent US12252481B2.

# System: human beta-coronavirus OC43
# method: OC43 coronavirus antiviral assay in HeLa cells (cytopathic effect, cell-titer-glo)
# Type: cell-based
# assay conditions: Betacoronavirus 1, OC43, HeLa, 144 h, 6 days at 33° C., read-out: EC50 (class)
pEC50: −log10 of the molar value.
readout type: pEC50

**Query** Sample "CC(C)(C)[C@H](NC(=O)C(F)(F)Cl)C(=O)N1C[C@@H]2[C@H]3C[C@@H]([C@@H]2[C@H]1C(=O)N[C@H](C#N)C[C@@H]1CCNC1=O)[C@H](F)C3" — what was its pEC50?
**Result** > 7.00

**Query** What about this compound? O=C(NC1CC1)C(=O)C(C[C@@H]1CCNC1=O)NC(=O)[C@@H]1[C@@H]2[C@H](CN1C(=O)c1nc3c(Cl)ccc(Cl)c3[nH]1)[C@@H]1C=C[C@H]2C1 (some centres unmarked)
**Result** 5.00 to 6.00

**Query** What about this compound? CC(C)(C)[C@H](NC(=O)C(F)(F)F)C(=O)N1C[C@H]2[C@@H]([C@H]1C(=O)N[C@H](C#N)CC1CC3(CC(F)(F)C3)NC1=O)[C@H]1C=C[C@@H]2C1 (mixture of isomers)
**Result** > 7.00

**Query** What about this compound? CC(C)(C)[C@H](NC(=O)C(F)(F)F)C(=O)N1C[C@H]2[C@@H]([C@H]1C(=O)NC(C#N)Cc1ccc[nH]c1=O)[C@H]1C=C[C@@H]2C1 (single isomer, unassigned)
**Result** 6.00 to 7.00

**Query** What about this compound? "CC(C)(C)[C@H](NC(=O)C(F)(F)F)C(=O)N1C[C@H]2[C@@H]([C@H]1C(=O)N[C@H](C#N)C[C@@H]1CCNC1=O)[C@H]1C=C[C@@H]2C12CC2"
**Result** > 7.00

**Query** What about this compound? "CC(C)(C)[C@H](NC(=O)C1(C2CC2)CC1)C(=O)N1C[C@H]2[C@@H]([C@H]1C(=O)N[C@H](C#N)C[C@@H]1CCNC1=O)[C@H]1C=C[C@@H]2C1"
**Result** 6.00 to 7.00

**Query** What about this compound? "CC(C)(OCC1CC1)[C@H](NC(=O)C(F)(F)C(F)(F)F)C(=O)N1C[C@H]2[C@@H]([C@H]1C(=O)N[C@H](C#N)C[C@@H]1CCNC1=O)[C@H]1C=C[C@@H]2C1"
**Result** > 7.00

**Query** What about this compound? "CC(C)(C)[C@H](NC(=O)C(F)(F)F)C(=O)N1C[C@H]2[C@@H]([C@H]1C(=O)N[C@H](C#N)C[C@@H]1Oc3cccnc3NC1=O)[C@H]1C=C[C@@H]2C1"
**Result** 6.00 to 7.00

**Query** What about this compound? "CC(C)(C)[C@H](NC(=O)C(F)(F)C(F)(F)F)C(=O)N1C[C@H]2[C@@H]([C@H]1C(=O)N[C@H](C#N)C[C@@H]1OCCNC1=O)[C@H]1C=C[C@@H]2C1"
**Result** > 7.00

**Query** What about this compound? "[2H]C1=C[C@@H]2C[C@H]1[C@H]1[C@@H]2CN(C(=O)[C@@H](NC(=O)C(F)(F)C(F)(F)F)C(C)(C)C)[C@@H]1C(=O)N[C@H](C#N)C[C@@H]1CCNC1=O"
**Result** > 7.00

**Query** What about this compound? CC(C)(C)[C@H](NC(=O)C(F)(F)F)C(=O)N1C[C@H]2[C@@H]([C@H]1C(=O)N[C@H](C#N)CC1Cc3ccccc3NC1=O)[C@H]1C=C[C@@H]2C1 (some centres unmarked)
**Result** > 7.00

* * *

# assayed target: HRV3C (Human rhinovirus 14, UniProt P03303)
# Construct: 3CLpro and HRV3C was added using a Multidrop Combi
# Sequence (P03303 1538-1719): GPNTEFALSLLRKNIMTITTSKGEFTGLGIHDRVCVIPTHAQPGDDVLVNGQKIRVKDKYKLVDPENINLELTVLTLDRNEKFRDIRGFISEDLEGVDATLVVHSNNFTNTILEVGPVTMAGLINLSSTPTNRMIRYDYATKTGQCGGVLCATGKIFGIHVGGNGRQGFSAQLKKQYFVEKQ
# method: biochemical
# Parameters: species or system HRV
# assay conditions: HRV3C, 30 mins preincubation, SAMDI-MS; read-out: HRV IC50 (bound)
pIC50: −log10 of the molar value.
readout type: pIC50

**Query** API: value(readout= pIC50, system= HRV3C (Human rhinovirus 14, UniProt P03303), query= "CC(C)(C)[C@H](NC(=O)C(F)(F)F)C(=O)N1C[C@H]2[C@@H]([C@H]1C(=O)N[C@H](C#N)C[C@@H]1OCCCNC1=O)[C@H]1C=C[C@@H]2C1" )
**Result** < 6.30

**Query** What about this compound? CC(C)(C)[C@H](NC(=O)C(F)(F)F)C(=O)N1C[C@H]2[C@@H]([C@H]1C(=O)N[C@H](C#N)C[C@@H]1CCNC1=O)[C@H]1CC[C@@H]2O1 (mixture of isomers)
**Result** < 5.00

**Query** What about this compound? "CC(F)(F)[C@H](NC(=O)C(F)(F)F)C(=O)N1C[C@H]2[C@@H]([C@H]1C(=O)N[C@H](C#N)C[C@@H]1CCNC1=O)[C@H]1C=C[C@@H]2C1"
**Result** < 6.30

**Query** What about this compound? "[2H]C1=C[C@@H]2C[C@H]1[C@H]1[C@@H]2CN(C(=O)[C@@H](NC(=O)C(F)(F)C(F)(F)F)C(C)(C)C)[C@@H]1C(=O)N[C@H](C#N)C[C@@H]1CCNC1=O"
**Result** < 6.30

**Query** What about this compound? CC(C)(C)[C@H](NC(=O)C(F)(F)F)C(=O)N1C[C@H]2[C@@H]([C@H]1C(=O)N[C@H](C#N)CC1Cc3ccccc3NC1=O)[C@H]1C=C[C@@H]2C1 (some centres unmarked)
**Result** < 5.00

**Query** What about this compound? "CC(C)(C)[C@H](NC(=O)C(F)(F)C(F)(F)F)C(=O)N1C[C@@H]2[C@H]3C[C@@H]([C@@H]2[C@H]1C(=O)N[C@H](C#N)C[C@@H]1OCCNC1=O)[C@H](F)C3"
**Result** < 6.30

**Query** What about this compound? "COC1(C(=O)N[C@H](C(=O)N2C[C@H]3[C@@H]([C@H]2C(=O)N[C@H](C#N)C[C@@H]2CCNC2=O)[C@H]2C=C[C@@H]3C2)C(C)(C)C)CCC1"
**Result** < 6.30

**Query** What about this compound? "CO[C@H](C(C)C)[C@H](NC(=O)C(F)(F)C(F)(F)F)C(=O)N1C[C@H]2[C@@H]([C@H]1C(=O)N[C@H](C#N)C[C@@H]1CCNC1=O)[C@H]1C=C[C@@H]2C1"
**Result** < 6.30
